Data provenance: paper PMC9623506

Below: a set of entries, each annotated with reported Ki.
target: subtilisin BPN′ (Bacillus amyloliquefaciens); construct: purchased Sigma-Aldrich (Tokyo, Japan); test: biochemical; assay type: biochemical
Positions of bridges follow the written chain, without caps; N, C: chain ends. Residues, ends and D or L forms follow the SMILES beside them.
Quick note: number first, unit second.

Below are worked cases with known answers.
CC(C)C[C@@H]1NC(=O)[C@@H](NC(=O)[C@H](CO)NC(=O)[C@H](Cc2ccccc2)NC(=O)[C@H](CC(=O)O)NC(=O)[C@@H](N)CO)CSSC[C@@H](C(=O)N[C@@H](CCCNC(=N)N)C(=O)N[C@@H](C)C(=O)O)NC(=O)CNC(=O)[C@H](CCC(=O)O)NC(=O)[C@H](C)NC1=O [S7A + T12A] (H-SDFSCLAEGCRA-OH; disulfide 5-10) :: 2.72 nM
CC(C)C[C@@H]1NC(=O)[C@@H](NC(=O)[C@H](CO)NC(=O)[C@H](Cc2ccccc2)NC(=O)[C@H](CC(=O)O)NC(=O)[C@@H](N)CO)CSSC[C@@H](C(=O)N[C@@H](CCCNC(=N)N)C(=O)N[C@H](C(=O)O)[C@@H](C)O)NC(=O)CNC(=O)[C@H](CCC(=O)O)NC(=O)[C@H](C)NC1=O [S7A] (H-SDFSCLAEGCRT-OH; disulfide 5-10) :: 2.58 nM
CC(C)C[C@@H]1NC(=O)[C@@H](NC(=O)[C@H](CO)NC(=O)[C@H](Cc2ccccc2)NC(=O)[C@H](CC(=O)O)NC(=O)[C@@H](N)CO)CSSC[C@@H](C(=O)N[C@@H](CCCNC(=N)N)C(=O)N[C@@H](CC(=O)O)C(=O)O)NC(=O)CNC(=O)[C@H](CCC(=O)O)NC(=O)[C@H](CO)NC1=O [T12D] (H-SDFSCLSEGCRD-OH; disulfide 5-10) :: 23.1 nM
CC(C)C[C@@H]1NC(=O)[C@@H](NC(=O)[C@H](CO)NC(=O)[C@H](Cc2ccccc2)NC(=O)[C@H](CC(=O)O)NC(=O)[C@@H](N)CO)CSSC[C@@H](C(=O)N[C@@H](CCCNC(=N)N)C(=O)N[C@@H](CCCNC(=N)N)C(=O)O)NC(=O)CNC(=O)[C@H](CCC(=O)O)NC(=O)[C@H](CO)NC1=O [T12R] (H-SDFSCLSEGCRR-OH; disulfide 5-10) :: 4.41 nM

Data request: Item CC(C)C[C@@H]1NC(=O)[C@@H](NC(=O)[C@H](CO)NC(=O)[C@H](Cc2ccccc2)NC(=O)[C@H](CC(=O)O)NC(=O)[C@@H](N)CO)CSSC[C@@H](C(=O)N[C@@H](CCCNC(=N)N)C(=O)N[C@@H](C)C(=O)O)NC(=O)CNC(=O)[C@H](CCC(=O)O)NC(=O)[C@H](CO)NC1=O [T12A] (H-SDFSCLSEGCRA-OH; disulfide 5-10) has what recorded Ki?
Data returned: 17.4 nM

Data request: Item CC(C)C[C@@H]1NC(=O)[C@@H](NC(=O)[C@H](CO)NC(=O)[C@H](Cc2ccccc2)NC(=O)[C@H](CC(=O)O)NC(=O)[C@@H](N)CO)CSSC[C@@H](C(=O)N[C@@H](CCCNC(=N)N)C(=O)N[C@H](C(=O)O)[C@@H](C)O)NC(=O)CNC(=O)[C@H](CCC(=O)O)NC(=O)CNC1=O [S7G] (H-SDFSCLGEGCRT-OH; disulfide 5-10) has what recorded Ki?
Data returned: 5.14 nM

Data request: Item CC(C)C[C@@H]1NC(=O)[C@@H](NC(=O)[C@H](CO)NC(=O)[C@H](Cc2ccccc2)NC(=O)[C@H](CC(=O)O)NC(=O)[C@@H](N)CO)CSSC[C@@H](C(=O)N[C@@H](CCCNC(=N)N)C(=O)NCC(=O)O)NC(=O)CNC(=O)[C@H](CCC(=O)O)NC(=O)CNC1=O [S7G + T12G] (H-SDFSCLGEGCRG-OH; disulfide 5-10) has what recorded Ki?
Data returned: 7.73 nM

Data request: Item CC(C)C[C@@H]1NC(=O)[C@@H](NC(=O)[C@H](CO)NC(=O)[C@H](Cc2ccccc2)NC(=O)[C@H](CC(=O)O)NC(=O)[C@@H](N)CO)CSSC[C@@H](C(=O)N[C@@H](CCCNC(=N)N)C(=O)N[C@@H](CCCCN)C(=O)O)NC(=O)CNC(=O)[C@H](CCC(=O)O)NC(=O)[C@H](CO)NC1=O [T12K] (H-SDFSCLSEGCRK-OH; disulfide 5-10) has what recorded Ki?
Data returned: 5.43 nM

Data request: Item CC(C)C[C@@H]1NC(=O)[C@@H](NC(=O)[C@H](CO)NC(=O)[C@H](Cc2ccccc2)NC(=O)[C@H](CC(=O)O)NC(=O)[C@@H](N)CO)CSSC[C@@H](C(=O)N[C@@H](CCCNC(=N)N)C(=O)NCC(=O)O)NC(=O)CNC(=O)[C@H](CCC(=O)O)NC(=O)[C@H](CO)NC1=O [T12G] (H-SDFSCLSEGCRG-OH; disulfide 5-10) has what recorded Ki?
Data returned: 10.6 nM

Data request: Item CC(C)C[C@H](NC(=O)[C@H](CCCNC(=N)N)NC(=O)[C@@H]1CSSC[C@H](NC(=O)[C@H](CO)NC(=O)[C@H](Cc2ccccc2)NC(=O)[C@H](CC(=O)O)NC(=O)[C@@H](N)CO)C(=O)N[C@@H](CC(C)C)C(=O)N[C@@H](CO)C(=O)N[C@@H](CCC(=O)O)C(=O)NCC(=O)N1)C(=O)O [T12L] (H-SDFSCLSEGCRL-OH; disulfide 5-10) has what recorded Ki?
Data returned: 12.9 nM

====

molecular target: subtilisin BPN′ (Bacillus amyloliquefaciens, UniProt P00782); construct: purchased Sigma-Aldrich (Tokyo, Japan); assay: biochemical; format: biochemical
Sequence (P00782 108-382): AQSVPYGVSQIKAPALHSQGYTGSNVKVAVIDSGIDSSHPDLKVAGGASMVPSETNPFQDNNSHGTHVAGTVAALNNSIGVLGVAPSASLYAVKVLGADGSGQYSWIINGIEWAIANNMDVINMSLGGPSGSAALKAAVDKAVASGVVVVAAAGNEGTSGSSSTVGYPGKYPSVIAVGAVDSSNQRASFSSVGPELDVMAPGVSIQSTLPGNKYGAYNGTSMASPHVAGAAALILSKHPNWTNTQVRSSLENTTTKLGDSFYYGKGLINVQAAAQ
Positions of bridges follow the written chain, without caps; N, C: chain ends. Residues, ends and D or L forms follow the SMILES beside them.
Below: a set of entries, each annotated with reported Ki.
Give the value in nM but do not write nM after it.

CC(C)C[C@@H]1NC(=O)[C@@H](NC(=O)[C@H](CO)NC(=O)[C@H](Cc2ccccc2)NC(=O)[C@H](CC(=O)O)NC(=O)[C@@H](N)CO)CSSC[C@@H](C(=O)N[C@@H](CCCNC(=N)N)C(=O)N[C@H](C(=O)O)[C@@H](C)O)NC(=O)CNC(=O)[C@H](CCC(=O)O)NC(=O)[C@H](CO)NC1=O [ASIP] (H-SDFSCLSEGCRT-OH; disulfide 5-10) :: 13

Would you kindly look at the next entry?
Data request: Item CC(C)C[C@@H]1NC(=O)[C@@H](NC(=O)[C@H](CO)NC(=O)[C@H](Cc2ccccc2)NC(=O)[C@H](CC(=O)O)NC(=O)[C@@H](N)CO)CSSC[C@@H](C(=O)N[C@@H](CCCNC(=N)N)C(=O)N[C@@H](CCCCN)C(=O)O)NC(=O)CNC(=O)[C@H](CCC(=O)O)NC(=O)[C@H](C)NC1=O [S7A + T12K] (H-SDFSCLAEGCRK-OH; disulfide 5-10) has what recorded Ki?
Data returned: 0.3
